MLD listing for selected molecules.
tested on: dd-strain male mice; assay: Acute toxicity test (minimum lethal dose, oral); type: in vivo; conditions: oral administration, three mice per group, mortality seven days after administration
Parameter: MLD

Molecule: CCn1c(=O)c2c(nc(/C=C/c3ccc4c(c3)OCO4)n2C)n(CC)c1=O
Result: > 300 mg/kg

Molecule: CCn1c(=O)c2c(nc(/C=C/c3ccccc3OC)n2C)n(CC)c1=O
Result: > 100 mg/kg

Molecule: CCn1c(=O)c2c(nc(/C=C/c3ccc(F)c(Cl)c3)n2C)n(CC)c1=O
Result: > 100 mg/kg

Molecule: CCn1c(=O)c2[nH]c(/C=C/c3ccc(OC)cc3OC)nc2n(CC)c1=O
Result: > 100 mg/kg

Molecule: CCn1c(=O)c2c(nc(/C=C/c3ccccc3F)n2C)n(CC)c1=O
Result: > 100 mg/kg

---

biological target: A₂ receptor (Rattus norvegicus, UniProt P30543); construct: from tissue; host or cells: rat corpus striatum membrane preparation; assay: Adenosine A₂ receptor binding test (³H-NECA binding); conditions: 10⁻⁶M; ³H-NECA binding, rat corpus striatum; read-out: Inhibition (%) A₂ Receptor
Sequence (P30543 whole entry): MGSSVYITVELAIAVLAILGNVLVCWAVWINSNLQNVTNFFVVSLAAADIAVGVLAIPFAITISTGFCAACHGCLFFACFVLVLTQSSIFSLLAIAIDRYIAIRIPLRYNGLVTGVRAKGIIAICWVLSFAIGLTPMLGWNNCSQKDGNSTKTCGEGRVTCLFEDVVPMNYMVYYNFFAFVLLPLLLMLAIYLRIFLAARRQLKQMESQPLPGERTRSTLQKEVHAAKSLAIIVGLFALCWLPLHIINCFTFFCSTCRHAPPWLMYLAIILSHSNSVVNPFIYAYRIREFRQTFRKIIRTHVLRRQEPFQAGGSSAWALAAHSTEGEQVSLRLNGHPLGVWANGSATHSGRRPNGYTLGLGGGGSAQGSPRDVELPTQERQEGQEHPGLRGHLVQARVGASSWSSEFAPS
Parameter: inhibition at 1 µM (%)

Molecule: COc1ccc(/C=C/c2nc3c([nH]2)c(=O)n(C)c(=O)n3C)c(OC)c1C [Compound 31]
Study system: A₂ receptor (Rattus norvegicus, UniProt P30543)
Quantitative result: 82
--
Molecule: CCn1c(=O)c2c(nc(/C(F)=C\c3ccccc3)n2C)n(CC)c1=O [Compound 76]
Study system: A₂ receptor (Rattus norvegicus, UniProt P30543)
Quantitative result: 69
--
Molecule: CCn1c(=O)c2c(nc(/C=C/c3cccc(Cl)c3)n2C)n(CC)c1=O [Compound 70]
Study system: A₂ receptor (Rattus norvegicus, UniProt P30543)
Quantitative result: 84
--
Molecule: CCn1c(=O)c2c(nc(/C=C/c3ccc(F)c(F)c3)n2C)n(CC)c1=O [Compound 54]
Study system: A₂ receptor (Rattus norvegicus, UniProt P30543)
Quantitative result: 94
--
Molecule: CCn1c(=O)c2[nH]c(/C=C/c3cccc(F)c3)nc2n(CC)c1=O [Compound 65]
Study system: A₂ receptor (Rattus norvegicus, UniProt P30543)
Quantitative result: 64
--
Molecule: CCn1c(=O)c2c(nc(/C=C/c3cc(OC)cc(OC)c3)n2C)n(CC)c1=O [Compound 68]
Study system: A₂ receptor (Rattus norvegicus, UniProt P30543)
Quantitative result: 88
--
Molecule: CCn1c(=O)c2[nH]c(/C=C/c3ccc(OC)c(OC)c3Cl)nc2n(CC)c1=O [Compound 49]
Study system: A₂ receptor (Rattus norvegicus, UniProt P30543)
Quantitative result: 76
--
Molecule: COc1ccc(/C=C/c2nc3c(c(=O)n(C)c(=O)n3C)n2C)c(Cl)c1OC [Compound 52]
Study system: A₂ receptor (Rattus norvegicus, UniProt P30543)
Quantitative result: 88
--
Molecule: CCn1c(=O)c2c(nc(/C=C/c3cccc(F)c3)n2C)n(CC)c1=O [Compound 66]
Study system: A₂ receptor (Rattus norvegicus, UniProt P30543)
Quantitative result: 93
--
Molecule: CCOc1ccc(/C=C/c2nc3c(c(=O)n(CC)c(=O)n3CC)n2C)cc1 [Compound 36]
Study system: A₂ receptor (Rattus norvegicus, UniProt P30543)
Quantitative result: 101
--
Molecule: CCOc1ccc(/C=C/c2nc3c([nH]2)c(=O)n(CC)c(=O)n3CC)cc1 [Compound 35]
Study system: A₂ receptor (Rattus norvegicus, UniProt P30543)
Quantitative result: 71
--
Molecule: CCCOc1ccc(/C=C/c2nc3c(c(=O)n(CC)c(=O)n3CC)n2C)cc1 [Compound 38]
Study system: A₂ receptor (Rattus norvegicus, UniProt P30543)
Quantitative result: 94
--
Molecule: CCn1c(=O)c2[nH]c(/C=C/c3cc(OC)cc(OC)c3)nc2n(CC)c1=O [Compound 67]
Study system: A₂ receptor (Rattus norvegicus, UniProt P30543)
Quantitative result: 73
--
Molecule: CCn1c(=O)c2c(nc(/C=C/c3ccc(OC)c(OC)c3Cl)n2C)n(CC)c1=O [Compound 50]
Study system: A₂ receptor (Rattus norvegicus, UniProt P30543)
Quantitative result: 95
--
Molecule: CCCOc1ccc(/C=C/c2nc3c([nH]2)c(=O)n(CC)c(=O)n3CC)cc1 [Compound 37]
Study system: A₂ receptor (Rattus norvegicus, UniProt P30543)
Quantitative result: 60

---

molecular target: A₂ receptor (Rattus norvegicus, UniProt P30543); construct: from tissue; host or cells: rat corpus striatum membrane preparation; assay: Adenosine A₂ receptor binding test (³H-CGS 21680 binding); conditions: 10^-6M; [^3H]CGS 21680 was used, rat corpus striatum; read-out: A2 Receptor Inhibition (%)
Parameter: inhibition at 1 µM

Molecule: CCn1c(=O)c2c(nc(/C=C/c3ccc(OCCCCN=[N+]=[N-])cc3)n2C)n(CC)c1=O
Study system: A₂ receptor (Rattus norvegicus, UniProt P30543)
Parameter: inhibition at 1 µM
Result: 79%

Molecule: CCn1c(=O)c2[nH]c(/C=C/c3cccc(OC(F)(F)F)c3)nc2n(CC)c1=O
Study system: A₂ receptor (Rattus norvegicus, UniProt P30543)
Parameter: inhibition at 1 µM
Result: 79%

Molecule: CCn1c(=O)c2[nH]c(/C=C/c3cccc(OC)c3)nc2n(CC)c1=O
Study system: A₂ receptor (Rattus norvegicus, UniProt P30543)
Parameter: inhibition at 1 µM
Result: 88%

Molecule: CCn1c(=O)c2[nH]c(/C=C/c3cc4c(cc3Br)OCO4)nc2n(CC)c1=O
Study system: A₂ receptor (Rattus norvegicus, UniProt P30543)
Parameter: inhibition at 1 µM
Result: 89%

Molecule: CCn1c(=O)c2[nH]c(/C=C/c3ccc(OC)c(C)c3)nc2n(CC)c1=O
Study system: A₂ receptor (Rattus norvegicus, UniProt P30543)
Parameter: inhibition at 1 µM
Result: 92%

---

biological target: A₂ receptor (Rattus norvegicus); construct: from tissue; host or cells: rat corpus striatum membrane preparation; experiment: Adenosine A₂ receptor binding test (³H-NECA binding); settings: read-out: Inhibition (%) A₂ Receptor
Think of 90% as a floor: if inhibition at 10 µM stands on it or above, it is t; beneath it, f.

Molecule: CCn1c(=O)c2[nH]c(/C=C/c3ccc(OC)c(OC)c3)nc2n(CC)c1=O
Group label: t
//
Molecule: CCn1c(=O)c2[nH]c(/C=C/c3ccc4c(c3)OCCO4)nc2n(CC)c1=O
Group label: f
//
Molecule: CCn1c(=O)c2c(nc(/C=C/c3ccc4c(c3)OCCO4)n2C)n(CC)c1=O
Group label: t
//
Molecule: COc1ccc(/C=C/c2nc3c(c(=O)n(C)c(=O)n3C)n2C)c(C)c1C
Group label: f

---

biological target: A₂ receptor (Rattus norvegicus, UniProt P30543); construct: from tissue; host or cells: rat corpus striatum membrane preparation; test: Adenosine A₂ receptor binding test (³H-NECA binding); conditions: 10⁻⁴M; ³H-NECA binding, rat corpus striatum; read-out: Inhibition (%) A₂ Receptor
Parameter: inhibition at 100 µM (%)

Compound: CCn1c(=O)c2c(nc(/C=C/c3ccc(OC)c(Br)c3)n2C)n(CC)c1=O [Compound 56]
Parameter: inhibition at 100 µM
Quantitative result: 99
--
Compound: COc1cccc(/C=C/c2nc3c(c(=O)n(C)c(=O)n3C)n2C)c1OC [Compound 26, (E)-8-(2,3-Dimethoxystyryl)caffeine]
Parameter: inhibition at 100 µM
Quantitative result: 79
--
Compound: COc1ccc(/C=C/c2nc3c(c(=O)n(C)c(=O)n3C)n2C)cc1Br [Compound 58, (E)-8-(3-Bromo-4-methoxystyryl)caffeine]
Parameter: inhibition at 100 µM
Quantitative result: 78
--
Compound: COc1ccc(/C=C/c2nc3c([nH]2)c(=O)n(C)c(=O)n3C)c(OC)c1C [Compound 31]
Parameter: inhibition at 100 µM
Quantitative result: 79
--
Compound: COc1ccc(/C=C/c2nc3c(c(=O)n(C)c(=O)n3C)n2C)c(OC)c1C [Compound 32]
Parameter: inhibition at 100 µM
Quantitative result: 98
--
Compound: CCn1c(=O)c2c(nc(/C=C/c3cc(C)ccc3C)n2C)n(CC)c1=O [Compound 34]
Parameter: inhibition at 100 µM
Quantitative result: 94
--
Compound: COc1ccc(/C=C/c2nc3c([nH]2)c(=O)n(C)c(=O)n3C)c(OC)c1 [Compound 27, (E)-8-(2,4-Dimethoxystyryl)theophylline]
Parameter: inhibition at 100 µM
Quantitative result: 90

---

inhibition at 10 µM listing for selected compounds.
target: A₂ receptor (Rattus norvegicus); construct: from tissue; host or cells: rat corpus striatum membrane preparation; assay: Adenosine A₂ receptor binding test (³H-NECA binding); details: 10⁻⁵M; ³H-NECA binding, rat corpus striatum; read-out: Inhibition (%) A₂ Receptor

Compound: COc1ccc(/C=C/c2nc3c([nH]2)c(=O)n(C)c(=O)n3C)c(OC)c1 [Compound 27, (E)-8-(2,4-Dimethoxystyryl)theophylline]
Study system: A₂ receptor (Rattus norvegicus)
inhibition at 10 µM, %: 89
//
Compound: COc1ccc(/C=C/c2nc3c(c(=O)n(C)c(=O)n3C)n2C)c(OC)c1C [Compound 32]
Study system: A₂ receptor (Rattus norvegicus)
inhibition at 10 µM, %: 82
//
Compound: CCn1c(=O)c2c(nc(/C=C/c3ccc(OC)c(OC)c3Cl)n2C)n(CC)c1=O [Compound 50]
Study system: A₂ receptor (Rattus norvegicus)
inhibition at 10 µM, %: 88
//
Compound: COc1ccc(/C=C/c2nc3c([nH]2)c(=O)n(C)c(=O)n3C)c(Cl)c1OC [Compound 51]
Study system: A₂ receptor (Rattus norvegicus)
inhibition at 10 µM, %: 88
//
Compound: Cn1c(=O)c2[nH]c(/C=C/c3ccc4c(c3)OCO4)nc2n(C)c1=O [Compound 23]
Study system: A₂ receptor (Rattus norvegicus)
inhibition at 10 µM, %: 90
//
Compound: COc1ccc(/C=C/c2nc3c(c(=O)n(C)c(=O)n3C)n2C)c(Cl)c1OC [Compound 52]
Study system: A₂ receptor (Rattus norvegicus)
inhibition at 10 µM, %: 81
//
Compound: COc1ccc(/C=C/c2nc3c([nH]2)c(=O)n(C)c(=O)n3C)c(OC)c1C [Compound 31]
Study system: A₂ receptor (Rattus norvegicus)
inhibition at 10 µM, %: 89
//
Compound: CCn1c(=O)c2c(nc(/C=C/c3cc(C)ccc3C)n2C)n(CC)c1=O [Compound 34]
Study system: A₂ receptor (Rattus norvegicus)
inhibition at 10 µM, %: 90

These data points were gathered from patent EP0590919A1.
